Below, each of the compounds is paired with its reported viability, T/C value.
Test system: IGROV1 complex spheroids (HUVEC, MSC), viability % test/control
TEST PROTOCOL: Anticancer human tumor IGROV1 cell line growth inhibition [GQUAD];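 also: spheroids exposed to compounds for 7 days before readout; 100% = DMSO vehicle control viability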
PARTICULARS: second compound 1 µM; first compound 0.316 µM; hits give low values

COMPOUND	viability, T/C
O=C(NO)c1cnc(N2CCN(S(=O)(=O)c3ccc4ccccc4c3)CC2)nc1 + Cc1cnc(CNC(=O)c2c(=O)c3ccc(N4CCCN(C)CC4)nc3n3c2sc2ccccc23)cn1	1.32%
O=C(NO)c1cnc(N2CCN(S(=O)(=O)c3ccc4ccccc4c3)CC2)nc1 + Cc1[nH]c2ccc(F)cc2c1-c1nc2c3cccnc3c3ncccc3c2[nH]1	2.47%

Let us examine a further case.
Please give the measured viability, T/C for this compound: O=C(c1cc(Cc2n[nH]c(=O)c3ccccc23)ccc1F)N1CCN(C(=O)C2CC2)CC1 + CN(C)c1ccc(Nc2c3ccc(NC(=O)CCN4CCCC4)cc3nc3cc(NC(=O)CCN4CCCC4)ccc23)cc1
86.9%
